Cited source: the supplement of paper PMC3545927

Assay target: furin, P09958;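 further: purified furin at 1:10 enzyme:substrate in 50 mM HEPES pH 7.5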
Sequence (P09958 whole entry): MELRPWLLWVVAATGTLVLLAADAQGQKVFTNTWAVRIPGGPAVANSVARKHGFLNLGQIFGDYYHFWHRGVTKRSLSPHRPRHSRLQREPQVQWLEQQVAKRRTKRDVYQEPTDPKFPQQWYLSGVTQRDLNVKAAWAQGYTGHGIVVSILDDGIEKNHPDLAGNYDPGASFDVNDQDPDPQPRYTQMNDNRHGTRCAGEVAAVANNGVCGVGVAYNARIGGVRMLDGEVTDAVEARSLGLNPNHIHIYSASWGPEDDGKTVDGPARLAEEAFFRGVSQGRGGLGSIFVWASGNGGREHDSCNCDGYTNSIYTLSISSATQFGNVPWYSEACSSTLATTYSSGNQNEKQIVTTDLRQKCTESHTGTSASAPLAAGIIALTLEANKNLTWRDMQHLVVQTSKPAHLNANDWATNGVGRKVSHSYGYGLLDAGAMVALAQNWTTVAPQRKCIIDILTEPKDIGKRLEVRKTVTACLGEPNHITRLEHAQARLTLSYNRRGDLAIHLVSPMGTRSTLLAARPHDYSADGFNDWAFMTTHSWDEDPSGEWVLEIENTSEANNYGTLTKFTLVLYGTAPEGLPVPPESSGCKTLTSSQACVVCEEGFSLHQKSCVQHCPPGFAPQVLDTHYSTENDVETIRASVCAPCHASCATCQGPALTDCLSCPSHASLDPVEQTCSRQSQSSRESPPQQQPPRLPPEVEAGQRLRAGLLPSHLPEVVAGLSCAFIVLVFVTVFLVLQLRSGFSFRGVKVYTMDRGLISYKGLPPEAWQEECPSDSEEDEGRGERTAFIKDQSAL
Method summary: furin cleavage Z-score vs untreated control; higher = more cleavage, active = 3.5 or more, inactive = 1 or less, 8 variable residues between constant flanks
Experimental conditions: 7.5 min
The other results are listed elsewhere or left out. The hit rate among all sequences tested is not known here.
Quantity: furin cleavage Z-score
Returns: the value as a bare number; no unit string appended.

Some sequences with recorded furin cleavage Z-score:
[
  {
    "Macromolecule sequence": "CARFARMIEQAGNASASA [FS-2257]",
    "furin cleavage Z-score": 1.16
  },
  {
    "Macromolecule sequence": "CARAPRSSSQAGNASASA [FS-3147]",
    "furin cleavage Z-score": 1.17
  }
]

Switching to the query record.
Reported furin cleavage Z-score for CAEPVTSTWVAGNASASA [HC2179] : what is it?
1.29
